- tested_target: Gal(b1-3)GlcNAc(b1-3)Gal(b1-4)GlcNAc(b1-3)Gal(b1-4)GlcNAc(b1-2)[Gal(b1-3)GlcNAc(b1-3)Gal(b1-4)GlcNAc(b1-3)Gal(b1-4)GlcNAc(b1-6)]Man(a1-6)[Gal(b1-3)GlcNAc(b1-3)Gal(b1-4)GlcNAc(b1-3)Gal(b1-4)GlcNAc(b1-2)Man(a1-3)]Man(b1-4)GlcNAc(b1-4)[Fuc(a1-6)]GlcNAc
- assay_explanation: glycan array binding signal (z-score within array); higher = stronger binding
- conditions_used: glycan notation: IUPAC condensed, linker removed
This is one part of a sample in which the strongest signals are shown more often than they occur.
quantity: glycan array binding signal (z-score)
Field format: numeric only.

binder: rCnSL-A (Clitocybe nebularis) (protein) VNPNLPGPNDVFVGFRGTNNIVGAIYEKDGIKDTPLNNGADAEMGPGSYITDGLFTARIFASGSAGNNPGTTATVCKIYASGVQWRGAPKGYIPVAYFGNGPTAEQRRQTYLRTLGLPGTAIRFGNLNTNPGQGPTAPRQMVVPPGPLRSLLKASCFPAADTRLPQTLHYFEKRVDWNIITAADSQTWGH
glycan array binding signal (z-score): 3.37

binder: EUL D1A second (Oryza sativa) (protein) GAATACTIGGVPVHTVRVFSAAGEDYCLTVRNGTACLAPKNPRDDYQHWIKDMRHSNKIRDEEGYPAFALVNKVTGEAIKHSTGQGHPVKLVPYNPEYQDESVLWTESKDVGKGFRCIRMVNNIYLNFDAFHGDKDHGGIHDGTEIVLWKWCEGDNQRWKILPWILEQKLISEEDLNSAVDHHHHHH
glycan array binding signal (z-score): 4.47

What value of glycan array binding signal (z-score) has been recorded for this entry: Gal 1 (Mus musculus), P16045 (protein) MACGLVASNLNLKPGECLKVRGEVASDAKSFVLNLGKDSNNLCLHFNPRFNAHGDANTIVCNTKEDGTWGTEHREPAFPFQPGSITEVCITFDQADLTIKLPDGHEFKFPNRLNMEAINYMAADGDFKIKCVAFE
2.97
